Below, each entry is listed with its recorded % ER Induction.
system: estrogen receptor (ER); experiment: ER-mediated luciferase reporter induction in T47D KBluc cells; assay type: cell-based, human; conditions: 1 µM; relative to 1nM estradiol
metric: % ER Induction (%)

[
  {
    "compound": "O=C1CC(c2ccc(O)c(O)c2)Oc2cc(O)cc(O)c21 (stereo not shown) [5,7,3′,4′-tetrahydroxyflavanone]",
    "value": 0
  },
  {
    "compound": "O=c1c(O)c(-c2ccc(O)cc2)oc2ccc(O)cc12 [3,6,4′-trihydroxyflavone]",
    "value": 102
  },
  {
    "compound": "O=c1cc(-c2ccccc2)oc2ccccc12",
    "value": 1
  },
  {
    "compound": "COc1ccc(-c2oc3ccc(OC)cc3c(=O)c2O)cc1 [3-hydroxy, 6,4′-dimethoxyflavone]",
    "value": 2
  },
  {
    "compound": "COc1ccc(-c2cc(=O)c3c(OC)cccc3o2)cc1",
    "value": 1
  },
  {
    "compound": "O=c1c(O)c(-c2ccc(O)cc2)oc2ccccc12 [3,4′-dihydroxyflavone]",
    "value": 13
  },
  {
    "compound": "O=c1cc(-c2cc(O)c(O)c(O)c2)oc2cc(O)cc(O)c12 [5,7,3′4′,5′-pentahydroxyflavone]",
    "value": 0
  }
]

---

Attribute: inhibition at 8 µM
biological target: UniProt P06401; assay: PR-mediated induction of transcription by R5020 in T47D K5pLuc cells (luciferase reporter and endogenous alkaline phosphatase); assay type: cell-based; details: T47D, 8 µM; LUC (luciferase); R5020 1.0 nM
Sequence (P06401 679-933 limits assumed): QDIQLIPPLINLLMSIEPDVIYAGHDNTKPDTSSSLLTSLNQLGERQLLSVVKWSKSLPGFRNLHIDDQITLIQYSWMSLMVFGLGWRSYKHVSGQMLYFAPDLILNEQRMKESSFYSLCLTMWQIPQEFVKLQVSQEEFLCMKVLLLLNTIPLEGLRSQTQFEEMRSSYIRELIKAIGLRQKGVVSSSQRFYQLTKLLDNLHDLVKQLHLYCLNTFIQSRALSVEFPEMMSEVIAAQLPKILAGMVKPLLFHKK

[
  {
    "compound": "O=c1cc(-c2ccc(O)cc2)oc2cc(O)ccc12 [7,4′-dihydroxyflavone]",
    "target.system": "UniProt P06401",
    "inhibition at 8 µM [%]": -49
  },
  {
    "compound": "O=c1c(-c2ccc(O)cc2)coc2cc(O)ccc12 [7,4′-dihydroxyisoflavone]",
    "target.system": "UniProt P06401",
    "inhibition at 8 µM [%]": -126
  },
  {
    "compound": "O=c1cc(-c2ccccc2)oc2ccccc12",
    "target.system": "UniProt P06401",
    "inhibition at 8 µM [%]": -107
  }
]
